These data points were gathered from paper PMC8343220.

Target: human α1D‐adrenoceptor (full length) (Homo sapiens)
Construct: human α1D‐adrenoceptor (full length) were used; expressed in transfected cells; host or cells: CHO-K1
Sequence (P25100 1-572): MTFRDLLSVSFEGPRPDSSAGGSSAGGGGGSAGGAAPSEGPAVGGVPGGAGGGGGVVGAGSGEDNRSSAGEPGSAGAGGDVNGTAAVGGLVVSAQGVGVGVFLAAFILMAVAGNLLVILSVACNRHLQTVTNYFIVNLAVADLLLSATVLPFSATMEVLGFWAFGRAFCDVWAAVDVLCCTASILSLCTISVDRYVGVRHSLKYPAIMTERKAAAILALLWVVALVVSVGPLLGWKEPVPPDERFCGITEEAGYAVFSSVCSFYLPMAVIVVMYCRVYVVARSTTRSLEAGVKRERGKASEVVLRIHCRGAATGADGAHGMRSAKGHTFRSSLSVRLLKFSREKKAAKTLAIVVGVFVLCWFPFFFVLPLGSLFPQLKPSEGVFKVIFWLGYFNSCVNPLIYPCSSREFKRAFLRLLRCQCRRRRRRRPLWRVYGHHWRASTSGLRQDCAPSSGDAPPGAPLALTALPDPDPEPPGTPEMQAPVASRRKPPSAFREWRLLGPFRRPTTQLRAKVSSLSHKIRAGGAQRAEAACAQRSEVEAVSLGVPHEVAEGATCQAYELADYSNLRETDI
Assay: ^3H‐prazosin whole‐cell radioligand binding, CHO‐α1D cells
Conditions: 3H‐prazosin binding Log KD
Record form. Attribute: Kd. Fill in for each entry.

Lab note: need Kd for CC(Cc1ccc(O)cc1)NCC(O)c1cc(O)cc(O)c1 (centres unmarked) on human α1D‐adrenoceptor (full length) (Homo sapiens), anyone have it? 44.7 µM

Next up: `Cc1cc(C(C)(C)C)cc(C)c1CC1=NCCN1` 5.89 µM

Next up: Cc1cccc(C(C)c2cnc[nH]2)c1C (centres unmarked) 2.14 µM

Next up: COc1ccc(CC(C)NCC(O)c2ccc(O)c(NC=O)c2)cc1 (centres unmarked) 7.08 µM

Next up: `Cc1cccc([C@H](C)c2cnc[nH]2)c1C` 1.23 µM
